Kindly find below IC50 information for Tyrosine-protein kinase Lck (Homo sapiens, UniProt P06239) taken from the literature.
VALUE_KIND: IC50

> print(dat)
                                   compound  value.kind     result
1   COc1cc(O)c2c(c1)C(=O)c1cc(C)cc(O)c1C2=O        IC50  > 2810 µM
2                CCCCCCNc1nc2ccccc2n2cncc12        IC50  > 12.5 µM
3  C[C@@H]1CCC(N2CC[C@]3(CN(C(=O)c4cc5ccccc5[nH]4)c4ccccc43)C2)CN1 (stereo not given in full)        IC50    > 30 µM
4  CNC(=O)c1cc(Oc2ccc3c(c2)OCCN3C(=O)Nc2ccc(Cl)cc2)ccn1        IC50     > 4 µM
5  COc1cc(Nc2ncc(NC(=O)c3cc(OC)cc(OC)c3)c(Oc3ccc(C)cc3OC)n2)cc(OC)c1        IC50   > 100 µM

====

pIC50: −log10 of the molar value.
Kindly find below pIC50 information for Tyrosine-protein kinase Lck (Homo sapiens) taken from the literature.
VALUE_KIND: pIC50

> print(dat)
                          structure.notation  value.comparator  recorded.number
 1  Cc1ncnc(Nc2ccc(OCc3cccc(F)c3)c(Cl)c2)c1C#Cc1ccc(CN2CCCC2)c(F)c1                 <             4.00
 2  Cc1ccc(C(=O)Nc2ccon2)cc1Nc1ncnc(NC2CCCC2)c1C#N                 <             4.30
 3  C(=C\c1ccc(OCc2ccccc2)c(OCc2ccccc2)c1)/c1ccc(OCc2ccccc2)cc1                 <             2.69
 4  Cc1ccc(NC(=O)c2cc(Cl)cc(Cl)c2)cc1Nc1nc2ccccc2n1-c1cc(N)ncn1                 =             7.24
 5  COCCCNC(=O)c1cccc2cc(Oc3ccnc4cc(OC)c(OC)cc34)ccc12                 =             6.00
 6  CCN(CC)CCOc1ccc(Nc2cc(N(C)C(=O)Nc3cc(NC(=O)c4cccc(C(F)(F)F)c4)ccc3C)ncn2)cc1                 =             8.52
 7    Cc1ccc(C(N)=O)cc1NC(=O)c1cnc(NC(C)C)s1                 <             4.30
 8  Cc1cc(C)c(NC(=O)c2cnc(Nc3cc(C)nc(C)n3)s2)c(C)c1                 =             8.52
 9  CCc1cc(C(=O)NC(C)(C)C)cc(C#Cc2ccc3c4c(oc3c2)C(C)(C)c2cc(NS(C)(=O)=O)ccc2C4=O)n1                 =             6.49
10  COc1cc2nccc(Oc3ccc4c(c3)OCCN4C(=O)NCc3ccccc3)c2cc1OC                 =             6.30
11  Cc1cccc(Cl)c1NC(=O)c1cnc(NC(=O)c2cccs2)s1                 =             5.65
12  Cc1cc(NC(=O)c2ccc(C)c(Nc3nccc(-c4cccnc4)n3)c2)cc(-n2cnc(C)c2)c1                 =             5.84
13  Cc1ccc(NC(=O)c2ccc3c(c2)OC(F)(F)O3)cc1C(=O)Nc1cnc(Nc2ccc(N3CCN(C)CC3)cc2)nc1                 =             8.89
14  Cc1ccc(NC(=O)Nc2nnc(Sc3ncnc4cc(OCCCN5CCOCC5)ccc34)s2)cc1                 <             5.00
15  COc1ccc2c(=O)cc(-c3cc(OC)c(OC)c(OC)c3)oc2c1                 <             2.63
16  CC(=O)N[C@@H](Cc1ccc(OP(=O)(O)O)cc1)C(=O)N[C@H]1CCC(=O)N2CCC[C@@H](C(=O)Nc3cccc4ccccc34)N2C1=O                 =             5.96
17  CCS(=O)(=O)c1ccc2c(c1)/C(=C/c1[nH]c3c(c1CCCN1CCN(CC(=O)O)CC1)CCCC3)C(=O)N2                 =             6.40
18  CC(C)Oc1cc(-n2cnc3ccc(N[C@@H](C)c4ccc(F)cn4)nc32)n[nH]1                 >             7.00
19  Cc1cc(O)c2c(c1)C(=O)c1cc(O[C@@H]3O[C@H](CO)[C@@H](O)[C@H](O)[C@H]3O)cc(O)c1C2=O                 <             2.73
20  CCN(CC)CCOc1ccc(Nc2cc(N(C)C(=O)Nc3cc(C(=O)Nc4cc(C(C)(C)C)on4)ccc3C)ncn2)cc1                 =             8.40
21  COc1cc2ncnc(Nc3cccc(Cl)c3F)c2cc1CN1CCC[C@H]1C(N)=O                 <             5.00
22  CCN(CC)CCCCNc1cc(-n2c(Nc3cc(NC(=O)c4cccc(C(F)(F)F)c4)ccc3C)nc3ccccc32)ncn1                 =             7.92

====

Kindly find below pIC50 information for Tyrosine-protein kinase Lck (Homo sapiens, UniProt P06239) taken from the literature.
pIC50: −log10 of the molar value.
VALUE_KIND: pIC50

> print(dat)
                         structure.notation  result
1  COc1cc2ncnc(Nc3cccc(Cl)c3F)c2cc1CN(C)[C@@H](C)C(N)=O  < 5.00
2  CN1CCN(c2ccc(OC(F)(F)F)c(Nc3nccc(-c4cc(C(N)=O)cn4C)n3)c2)CC1  < 5.00
3  O=C(c1ccc(F)c(F)c1Nc1ccc(I)cc1F)N1CC(O)([C@@H]2CCCCN2)C1  < 5.00

====

Kindly find below IC50 information for Tyrosine-protein kinase Lck (Homo sapiens, UniProt P06239) taken from the literature.
VALUE_KIND: IC50

> print(dat)
                                    compound                        measurement.target  value.kind     result
 1  O=C1NC(=O)c2ccc(I)cc2/C1=C/NCc1ccc(-c2ccoc2)c(O)c1  Tyrosine-protein kinase Lck (Homo sapiens, UniProt P06239)        IC50    > 30 µM
 2  COc1ccc(C)c(Nc2nccc(-n3cnc4ccccc43)n2)c1  Tyrosine-protein kinase Lck (Homo sapiens, UniProt P06239)        IC50    > 10 µM
 3  Cn1cc(C2=C(c3c4n(c5ccccc35)CCC(CN)C4)C(=O)NC2=O)c2ccccc21 (stereo not drawn)  Tyrosine-protein kinase Lck (Homo sapiens, UniProt P06239)        IC50   > 100 µM
 4  COc1cc2ncnc(Nc3cccc(Cl)c3F)c2cc1CN1CCOCC1C(N)=O (stereo not drawn)  Tyrosine-protein kinase Lck (Homo sapiens, UniProt P06239)        IC50    > 10 µM
 5    CCCNc1ncc(C(=O)Nc2cc(C(=O)NCC)ccc2C)s1  Tyrosine-protein kinase Lck (Homo sapiens, UniProt P06239)        IC50     1.9 µM
 6  Cc1cccc(C)c1-n1c(=O)c2cnc(Nc3ccc(OCCN4CCN(C)CC4)c(F)c3)nc2n2c3ccccc3nc12  Tyrosine-protein kinase Lck (Homo sapiens, UniProt P06239)        IC50   0.023 µM
 7  Cc1ccc(NC(=O)c2cccc(C(F)(F)F)c2)cc1Nc1nc2ccccc2n1-c1cc(NCCc2ccccn2)ncn1  Tyrosine-protein kinase Lck (Homo sapiens, UniProt P06239)        IC50   0.204 µM
 8  Nc1ccc2c(c1)C(=O)/C(=C/c1cc(Br)c(O)c(Br)c1)C2  Tyrosine-protein kinase Lck (Homo sapiens, UniProt P06239)        IC50    0.71 µM
 9        Cc1ccccc1NC(=O)c1nc2ccccc2n2cncc12  Tyrosine-protein kinase Lck (Homo sapiens, UniProt P06239)        IC50  > 12.5 µM
10          Fc1cccc(F)c1Nc1nc2ccccc2n2cncc12  Tyrosine-protein kinase Lck (Homo sapiens, UniProt P06239)        IC50    0.36 µM
11  COc1ccc2c(c1)C(=O)N(c1nc(C(=O)Nc3cnccc3N3CCNCC3)cs1)C2  Tyrosine-protein kinase Lck (Homo sapiens, UniProt P06239)        IC50    > 30 µM
12     Cc1ccc(F)cc1Nc1ccnc(-n2cnc3ccccc32)n1  Tyrosine-protein kinase Lck (Homo sapiens, UniProt P06239)        IC50    > 10 µM
13                  C(=N\Nc1ccccc1)/c1ccncc1  Tyrosine-protein kinase Lck (Homo sapiens, UniProt P06239)        IC50  > 4060 µM
